experiment: In Vitro Binding affinity againist 5-HT1A receptor by displacing [3H]8-OH-DPAT from pig cortex
pIC50: −log10 of the molar value.
observable: pIC50

| compound | reported_result |
| --- | --- |
| NCCc1coc2ccc(C(N)=O)cc12 | 8.34 |
| NCCC1COc2ccc(C(N)=O)cc21 (configuration not stated) | 7.14 |

----------
# reported pIC50; entries follow
test: In Vitro Binding affinity againist 5-hydroxytryptamine 2C receptor by displacing [3H]mesulergine from pig cortex
pIC50: −log10 of the molar value.

| molecule | pIC50 |
| --- | --- |
| NCCC1COc2ccc(C(N)=O)cc21 (configuration not stated) | 5.09 |
| NCCc1coc2ccc(C(N)=O)cc12 | 6.18 |

----------
The following molecules are shown together with reported pIC50 values.
assay: In Vitro Binding affinity againist 5-hydroxytryptamine 1D receptor by displacing [125I]GTI from pig caudate
pIC50: −log10 of the molar value.
observable: pIC50

| molecule | observable | reported_result |
| --- | --- | --- |
| NCCc1coc2ccc(C(N)=O)cc12 | pIC50 | 7.37 |
| NCCC1COc2ccc(C(N)=O)cc21 (configuration not stated) | pIC50 | 6.11 |
